# key: entry, value: pEC50
Biological target: human GPR40 (Homo sapiens, UniProt O14842, R211H)
Sequence (O14842 whole entry R211H): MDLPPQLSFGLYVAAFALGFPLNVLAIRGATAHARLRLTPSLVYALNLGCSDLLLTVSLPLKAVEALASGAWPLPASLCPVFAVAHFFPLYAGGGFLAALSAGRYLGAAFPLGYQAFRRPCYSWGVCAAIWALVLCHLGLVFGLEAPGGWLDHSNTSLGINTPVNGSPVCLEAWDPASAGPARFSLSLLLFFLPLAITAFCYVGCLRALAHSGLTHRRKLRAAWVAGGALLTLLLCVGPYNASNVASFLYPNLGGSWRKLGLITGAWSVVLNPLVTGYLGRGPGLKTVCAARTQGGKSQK
Experiment: Measurement of GPR40 agonist action (FLIPR, intracellular calcium)
Settings: CHO cell strain expressing human GPR40; changes in fluorescence intensity after 1 minute of the measurement
pEC50: −log10 of the molar value.

compound	pEC50
O=c1[n-]c(=O)n(Cc2ccc(OCc3cccc(Oc4ccccc4)c3)cc2)o1.[Na+] [Example 38]	6.19
Cc1cccc(C)c1-c1cccc(CNc2ccc(Cn3oc(=O)[nH]c3=O)cc2)c1 [Example 406]	6.92
Cc1cccc(C)c1-c1cccc(COc2ccc(Cn3oc(=O)[n-]c3=O)cc2)c1.[Na+] [Example 39]	6.59
CCOCCOc1cc(C)c(-c2cccc(COc3ccc(Cn4oc(=O)[n-]c4=O)cc3)c2)c(C)c1.[Na+] [Example 44]	6.17
Cc1cccc(C)c1-c1cccc(COc2ccc(Cn3oc(=O)[nH]c3=O)cn2)c1 [Example 99]	6.35
Cc1cccc(C)c1-c1cccc(C(=O)Nc2ccc(Cn3oc(=O)[nH]c3=O)cc2)c1 [Example 16]	6.35
Cc1cc(OS(C)(=O)=O)cc(C)c1-c1cccc(COc2ccc(Cn3oc(=O)[nH]c3=O)cc2)c1 [Example 119]	6.66
Cc1cc(C(=O)NC2CCOCC2)ccc1-c1cccc(COc2ccc(Cn3oc(=O)[nH]c3=O)cc2)c1 [Example 117]	6.54
